Listed variants paired with reported protein stability index
B1: NP_015628.1 (parent)
chain: EQRNSRWNTVLRAVKAKTHHLEP

Variants of: B1
Assay: protein stability index of a GFP-peptide fusion (GPS, HEK-293T) (PSI 1-6); higher = more stable;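 also: lentivirally expressed fusion library, cells FACS-sorted into six equal-sized GFP/DsRed ratio bins, PSI computed from sequencing read fractions per bin weighted by bin number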
Conditions: c terminus: native
Give a plain numeric answer without units written out.

Please look up its protein stability index: EVRNSRWNTVLRAVKAKTHHLEP [Q2V]
2.76

Please look up its protein stability index: EQRNQRWNTVLRAVKAKTHHLEP [S5Q]
2.67

Please look up its protein stability index: EQRNSRWNTVLGAVKAKTHHLEP [R12G]
2.78

Please look up its protein stability index: EQRNSRWNTVLRAGKAKTHHLEP [V14G]
3.31

Please look up its protein stability index: EQINSRWNTVLRAVKAKTHHLEP [R3I]
3.09

Please look up its protein stability index: EQRNSRWNTVLRAVKAKTRHLEP [H19R]
2.96

Please look up its protein stability index: EQRNSDWNTVLRAVKAKTHHLEP [R6D]
2.7

Please look up its protein stability index: EQRYSRWNTVLRAVKAKTHHLEP [N4Y]
3.16

Please look up its protein stability index: EQRNSRWNTVLRAVKATTHHLEP [K17T]
2.84

Please look up its protein stability index: EQHNSRWNTVLRAVKAKTHHLEP [R3H]
2.99
